Reported pKi values for a set of compounds
Target: D(3) dopamine receptor (Homo sapiens)
Sequence (P35462 whole entry): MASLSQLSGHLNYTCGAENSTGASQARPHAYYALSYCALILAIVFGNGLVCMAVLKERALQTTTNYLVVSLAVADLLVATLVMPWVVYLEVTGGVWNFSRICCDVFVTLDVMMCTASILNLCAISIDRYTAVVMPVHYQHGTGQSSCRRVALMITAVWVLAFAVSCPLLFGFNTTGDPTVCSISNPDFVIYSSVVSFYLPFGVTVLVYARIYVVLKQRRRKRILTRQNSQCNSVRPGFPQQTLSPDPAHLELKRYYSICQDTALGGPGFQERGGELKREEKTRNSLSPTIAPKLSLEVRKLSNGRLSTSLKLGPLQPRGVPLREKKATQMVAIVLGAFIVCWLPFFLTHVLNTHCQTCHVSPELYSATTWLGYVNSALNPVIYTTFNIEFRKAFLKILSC
Assay: Displacement of [3H]spiperone from human dopamine D3 receptor transfected in HEK293 cells after 2 hrs by scintillation counting analysis
Assay type: cell-based
Conditions: read-out: Ki
// scale note: pKi = -log10(conc_M); give the bare number

Record excerpt, results attached:
[
  {
    "STRUCTURE NOTATION": "Oc1ccc2c(c1)O[C@@H](CNCc1ccccc1I)CC2",
    "pKi": 8.75
  },
  {
    "STRUCTURE NOTATION": "Oc1ccc2c(c1)O[C@@H](CNCCN1CCN(c3ccc(I)cc3)CC1)CC2",
    "pKi": 7.64
  },
  {
    "STRUCTURE NOTATION": "CCCCCCNC[C@H]1CCc2ccc(O)cc2O1",
    "pKi": 6.26
  }
]

Input line: # pKi lookup, item Oc1ccc2c(c1)O[C@@H](CNCc1ccccc1OCCCCF)CC2
Output line: 7.48

Input line: # pKi lookup, item Oc1ccc2c(c1)O[C@@H](CN1CCN(c3ccc(I)cc3)CC1)CC2
Output line: 7.62

Input line: # pKi lookup, item Oc1ccc2c(c1)O[C@@H](CNCc1cccc(I)c1)CC2
Output line: 8.10

Input line: # pKi lookup, item Oc1ccc2c(c1)O[C@@H](CNCc1ccc(I)cc1)CC2
Output line: 7.86

Input line: # pKi lookup, item Oc1ccc2c(c1)O[C@@H](CNCc1ccc(OCCCCF)cc1)CC2
Output line: 7.92

Input line: # pKi lookup, item Oc1ccc2c(c1)O[C@@H](CN1CCN(c3ccc(OCCF)cc3)CC1)CC2
Output line: 7.40

Input line: # pKi lookup, item Oc1ccc2c(c1)O[C@@H](CNCCN1CCN(c3ccc(OCCF)cc3)CC1)CC2
Output line: 8.00

* * *

Molecular target: D(2) dopamine receptor (Homo sapiens, UniProt P14416)
Sequence (P14416 whole entry): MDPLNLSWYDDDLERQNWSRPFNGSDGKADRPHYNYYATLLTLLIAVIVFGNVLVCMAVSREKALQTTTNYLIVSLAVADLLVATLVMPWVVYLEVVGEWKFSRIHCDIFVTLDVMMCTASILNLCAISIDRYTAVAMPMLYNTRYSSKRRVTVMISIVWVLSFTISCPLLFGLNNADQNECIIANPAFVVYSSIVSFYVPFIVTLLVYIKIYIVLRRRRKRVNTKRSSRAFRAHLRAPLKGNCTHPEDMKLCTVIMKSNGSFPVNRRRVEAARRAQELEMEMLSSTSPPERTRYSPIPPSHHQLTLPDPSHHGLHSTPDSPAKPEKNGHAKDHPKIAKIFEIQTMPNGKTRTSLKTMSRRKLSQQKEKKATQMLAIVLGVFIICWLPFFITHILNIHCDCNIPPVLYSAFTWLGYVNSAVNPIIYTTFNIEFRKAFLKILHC
Experiment: Displacement of [3H]spiperone from low-affinity state of human dopamine D2L receptor transfected in HEK293 cells after 2 hrs by scintillation counting analysis
Assay type: cell-based
Conditions: read-out: Ki
pKi: −log10 of the molar value.
Label label 1 when pKi >= 7; otherwise label 0.

[
  {
    "STRUCTURE NOTATION": "Oc1ccc2c(c1)O[C@@H](CNCc1ccccc1I)CC2",
    "ASSIGNED LABEL": "label 1"
  }
]

Would you kindly look at the next entry?
Input line: Record Oc1ccc2c(c1)O[C@@H](CNCCN1CCN(c3ccc(OCCF)cc3)CC1)CC2 ; criterion: pKi no lower than 7. Met?
Output line: label 0

* * *

Organism: Homo sapiens
Assay: Selectivity ratio of Ki for human dopamine D1-like receptor to Ki for human dopamine D2-like receptor
Reported Ratio Ki values for a set of molecules

Record excerpt, results attached:
[
  {
    "STRUCTURE NOTATION": "Oc1ccc2c(c1)O[C@@H](CNCc1ccccc1OCCCCF)CC2",
    "RESULT": "> 100"
  },
  {
    "STRUCTURE NOTATION": "Oc1ccc2c(c1)O[C@@H](CNCc1ccccc1I)CC2",
    "RESULT": "> 100"
  }
]

Now consider a different molecule.
Input line: # Ratio Ki lookup, item Oc1ccc2c(c1)O[C@@H](CN1CCN(c3ccc(OCCF)cc3)CC1)CC2
Output line: > 100
